Target: CAv1.2 (Homo sapiens, UniProt Q13936)
Experiment: FLIPR data, CAv1.2 channel blocking (Table 6)
Format: cell-based
Conditions: ratio closed/inactivated IC50
Would you mind telling me the reported CAv1.2 IC50 Ratio closed/inact. of each entry?
Numbers only.

{"compound": "CC(C)([C@H]1C[C@@H](CNC(=O)c2ncc(C(F)(F)F)cn2)C1)S(=O)(=O)c1cccc(C(F)(F)F)c1 [Compound 684]", "result.number": 1.9}
{"compound": "CC(C)([C@H]1C[C@@H](CNC(=O)c2ccc(OCC(F)(F)F)nc2)C1)S(=O)(=O)c1cccc(C(F)(F)F)c1 [Compound 686]", "result.number": 4}

// input: 4 compounds below; output: CAv1.2 IC50 Ratio closed/inact. for each
1. CC(C)S(=O)(=O)c1cc(C(F)(F)F)cnc1C(=O)NC[C@H]1C[C@@H](C(C)(C)S(=O)(=O)c2cccc(C(F)(F)F)c2)C1 [Compound 681]
2. CC(C)S(=O)(=O)c1cc(C(F)(F)F)cnc1C(=O)N[C@H]1C[C@H](C(C)(C)S(=O)(=O)c2cccc(OC(F)(F)F)c2)C1 [Compound 638]
3. CC(C)([C@H]1C[C@@H](NC(=O)c2ccc(C(F)(F)F)cn2)C1)S(=O)(=O)c1cccc(C(F)(F)F)c1 [Compound 575]
4. O=C(NC[C@H]1C[C@H](S(=O)(=O)c2cccc(C(F)(F)F)c2)C1)c1ccc(C(F)(F)F)cc1 [Compound 572]

[reply]
1: 3.8; 2: 1.6; 3: 1.4; 4: 2.4

----------
Biological target: human α1G T-type channels (Homo sapiens)
Sequence (O43497 whole entry): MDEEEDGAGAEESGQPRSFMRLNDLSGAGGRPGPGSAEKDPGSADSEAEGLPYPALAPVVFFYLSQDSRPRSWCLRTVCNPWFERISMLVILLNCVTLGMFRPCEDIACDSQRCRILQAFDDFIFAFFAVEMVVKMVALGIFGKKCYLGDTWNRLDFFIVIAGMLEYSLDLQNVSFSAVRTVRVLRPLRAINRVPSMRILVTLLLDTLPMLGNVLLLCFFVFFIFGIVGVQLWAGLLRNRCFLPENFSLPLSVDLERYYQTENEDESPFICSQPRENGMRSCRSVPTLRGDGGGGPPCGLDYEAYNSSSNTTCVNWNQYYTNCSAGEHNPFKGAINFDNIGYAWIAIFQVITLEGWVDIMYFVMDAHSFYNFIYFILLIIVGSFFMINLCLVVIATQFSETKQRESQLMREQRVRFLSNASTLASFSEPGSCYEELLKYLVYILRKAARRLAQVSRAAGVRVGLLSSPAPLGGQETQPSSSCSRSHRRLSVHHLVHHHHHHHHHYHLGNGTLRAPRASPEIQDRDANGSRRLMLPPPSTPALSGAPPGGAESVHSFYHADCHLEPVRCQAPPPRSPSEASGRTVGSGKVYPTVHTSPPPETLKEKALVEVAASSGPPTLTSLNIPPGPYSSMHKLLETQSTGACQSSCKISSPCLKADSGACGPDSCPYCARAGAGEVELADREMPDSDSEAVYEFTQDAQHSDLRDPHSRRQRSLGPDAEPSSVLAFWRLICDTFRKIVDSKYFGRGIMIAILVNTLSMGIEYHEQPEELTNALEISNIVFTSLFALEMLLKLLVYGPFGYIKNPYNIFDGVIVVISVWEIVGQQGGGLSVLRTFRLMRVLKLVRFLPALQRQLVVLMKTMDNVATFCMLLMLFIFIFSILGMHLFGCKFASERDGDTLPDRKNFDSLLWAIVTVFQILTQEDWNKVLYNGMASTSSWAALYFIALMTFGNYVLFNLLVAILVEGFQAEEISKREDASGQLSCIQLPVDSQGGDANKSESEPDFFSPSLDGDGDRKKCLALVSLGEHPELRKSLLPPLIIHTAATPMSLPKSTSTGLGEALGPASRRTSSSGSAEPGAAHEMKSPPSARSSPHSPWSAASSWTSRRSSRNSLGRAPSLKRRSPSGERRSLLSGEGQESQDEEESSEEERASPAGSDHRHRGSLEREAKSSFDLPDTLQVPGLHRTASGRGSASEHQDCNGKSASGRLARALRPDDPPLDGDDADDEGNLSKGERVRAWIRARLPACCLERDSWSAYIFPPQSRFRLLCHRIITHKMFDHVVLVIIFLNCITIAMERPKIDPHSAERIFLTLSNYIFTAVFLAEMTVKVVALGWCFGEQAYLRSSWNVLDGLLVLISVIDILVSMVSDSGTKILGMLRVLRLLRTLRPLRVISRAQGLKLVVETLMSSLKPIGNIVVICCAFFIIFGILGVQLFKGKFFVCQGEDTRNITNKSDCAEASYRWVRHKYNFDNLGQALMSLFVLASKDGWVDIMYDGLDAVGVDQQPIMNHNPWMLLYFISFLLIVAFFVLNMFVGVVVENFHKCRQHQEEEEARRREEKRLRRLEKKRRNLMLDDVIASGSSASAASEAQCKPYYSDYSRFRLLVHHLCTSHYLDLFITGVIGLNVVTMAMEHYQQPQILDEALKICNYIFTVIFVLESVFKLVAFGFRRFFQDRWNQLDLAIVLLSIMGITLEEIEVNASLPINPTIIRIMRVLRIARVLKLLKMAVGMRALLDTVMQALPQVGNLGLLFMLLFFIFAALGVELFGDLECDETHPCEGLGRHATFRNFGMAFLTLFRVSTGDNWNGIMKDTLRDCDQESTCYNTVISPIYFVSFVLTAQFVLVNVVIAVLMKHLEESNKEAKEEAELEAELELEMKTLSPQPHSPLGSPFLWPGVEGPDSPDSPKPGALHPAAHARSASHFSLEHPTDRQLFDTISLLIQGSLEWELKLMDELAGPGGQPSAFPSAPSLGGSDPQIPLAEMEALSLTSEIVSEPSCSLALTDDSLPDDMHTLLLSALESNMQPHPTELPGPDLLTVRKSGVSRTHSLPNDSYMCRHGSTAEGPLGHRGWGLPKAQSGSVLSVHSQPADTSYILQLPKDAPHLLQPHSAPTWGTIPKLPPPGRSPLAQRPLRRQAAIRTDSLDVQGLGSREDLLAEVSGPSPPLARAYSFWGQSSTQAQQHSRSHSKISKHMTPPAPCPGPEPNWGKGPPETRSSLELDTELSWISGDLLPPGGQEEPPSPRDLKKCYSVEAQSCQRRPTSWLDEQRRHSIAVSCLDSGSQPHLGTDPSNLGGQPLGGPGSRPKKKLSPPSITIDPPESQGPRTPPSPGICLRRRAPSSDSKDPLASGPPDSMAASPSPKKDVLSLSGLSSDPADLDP
Experiment: T-type calcium channel block, whole cell patch clamp, α1G
Type: cell-based
Details: HEK cells stably expressing human α1G; mainly non-inactivated protocol; values above 10,000 nM represented as 10000
Note to self: IC50 under 2000 nM means criterion met, ties and anything higher get criterion not met.

{"molecule": "O=C(N[C@H]1CC[C@H](S(=O)(=O)c2cccc(C(F)(F)F)c2)CC1)c1ccc(C(F)(F)F)cn1", "category.label": "criterion met"}
{"molecule": "CC1(CNC(=O)c2ccc(C(F)(F)F)cn2)CCC(S(=O)(=O)c2cccc(C(F)(F)F)c2)CC1 (stereo not shown)", "category.label": "criterion met"}
{"molecule": "CC(C)(CNS(=O)(=O)c1ccc2c(c1)OCO2)S(=O)(=O)c1cccc(C(F)(F)F)c1", "category.label": "criterion met"}

[ask] Quick check: IC50 of "CS(=O)(=O)c1cc(C(F)(F)F)cnc1C(=O)N[C@H]1CC[C@@](F)(S(=O)(=O)c2cc(F)cc(C(F)(F)F)c2)CC1" under 2000 nM?
[reply] criterion not met

[ask] Quick check: IC50 of "COc1cc(F)cc(C(=O)N[C@H]2CC[C@H](CS(=O)(=O)c3cccc(C(F)(F)F)c3)CC2)c1" under 2000 nM?
[reply] criterion not met

[ask] Quick check: IC50 of "O=C(N[C@H]1CC[C@@](F)(S(=O)(=O)c2cccc(C(F)(F)F)c2)CC1)[C@H]1CCCCN1" under 2000 nM?
[reply] criterion not met

[ask] Quick check: IC50 of "O=C(CN[C@H]1C[C@H](CS(=O)(=O)c2cccc(C(F)(F)F)c2)C1)NC1CCCCC1" under 2000 nM?
[reply] criterion not met

[ask] Quick check: IC50 of "O=C(NC[C@H]1CC[C@@H](S(=O)(=O)c2cccc(C(F)(F)F)c2)CC1)c1cc(F)cc(Cl)c1" under 2000 nM?
[reply] criterion met

[ask] Quick check: IC50 of "O=C1c2ccc(C(F)(F)F)nc2CN1[C@H]1CC[C@@](F)(S(=O)(=O)c2cccc(C(F)(F)F)c2)CC1" under 2000 nM?
[reply] criterion met

[ask] Quick check: IC50 of "COc1cc(C(=O)N[C@H]2CC[C@@](F)(S(=O)(=O)c3cccc(C(F)(F)F)c3)CC2)cc(Cl)n1" under 2000 nM?
[reply] criterion not met

[ask] Quick check: IC50 of "CC(C)(CCNC(=O)c1ccc(Cl)cc1S(C)(=O)=O)S(=O)(=O)c1cccc(C(F)(F)F)c1" under 2000 nM?
[reply] criterion met

[ask] Quick check: IC50 of "CC(C)NC(=O)CN[C@H]1CC[C@@H](S(=O)(=O)c2cccc(C(F)(F)F)c2)CC1" under 2000 nM?
[reply] criterion met

[ask] Quick check: IC50 of "O=C(N[C@H]1CC[C@@](F)(S(=O)(=O)c2cccc(C(F)(F)F)c2)CC1)c1cc(C(F)(F)F)ccn1" under 2000 nM?
[reply] criterion not met

[ask] Quick check: IC50 of "O=C(CN[C@H]1CC[C@@H](S(=O)(=O)c2cccc(C(F)(F)F)c2)CC1)NCC(F)(F)F" under 2000 nM?
[reply] criterion met
